System: cultured cells of Taxus baccata LINN
Experiment: Growth rate and taxane yield, 21-day shake culture of Taxus baccata cells with heavy metal compound, amine, antiethylene agent or Ethrel added
Format: cell-based
Settings: 10^−9 M added at start, 21 days
QUANTITY: yield of taxol

{"MOLECULE": "[Cl][Co][Cl] [cobalt chloride]", "QUANTITY": "yield of taxol", "VAL": "0.27 mg/L"}
{"MOLECULE": "NCCCNCCCCNCCCN [spermin]", "QUANTITY": "yield of taxol", "VAL": "0.72 mg/L"}
{"MOLECULE": "O=S([O-])([O-])=S.[Ag+].[Ag+] [silver thiosulfate, [Ag(S2O3)2]^3−]", "QUANTITY": "yield of taxol", "VAL": "0.33 mg/L"}
{"MOLECULE": "NCCCCN [putrescine]", "QUANTITY": "yield of taxol", "VAL": "0.69 mg/L"}

yield of taxol reading for NCCCCNCCCN [spermidine] : 0.32 mg/L
